- assay.explanation: qHTS of pediatric cancer cell lines to identify multiple opportunities for drug repurposing: Confirmatory screen for LAN-5 cells (AID 1347113); note: nearly all actives have a fitted effect of over 65% in size
- measurement.context: LAN-5 neuroblastoma cell viability; series mostly up to 45.9 µM
Results filed as inconclusive are left out. Calls of active or inactive are those of the source. Calls come from the whole dose curve; as a rule, active = well fitted cell-killing curve with a large enough effect; inconclusive = small, poorly fitted or top-dose-only effect, or effect the other way; inactive = no such curve, though single readings can be large or run the other way.
The reply should be one of these categories: active, inactive

Examples from the recorded data:
// param item: COC(=O)Nc1nc2ccc(C(=O)c3cccs3)cc2[nH]1 ; yields the recorded call
active

// param item: CCC1(c2ccccc2)C(=O)NCNC1=O ; yields the recorded call
inactive

// param item: Clc1ccc2nsnc2c1NC1=NCCN1 ; yields the recorded call
inactive

// param item: COc1cc2c(c(OC)c1OC)-c1ccc(OC)c(=O)cc1[C@@H](NC(C)=O)CC2 ; yields the recorded call
active

// param item: CN1CCN(CCCN2c3ccccc3Sc3ccc(Cl)cc32)CC1 ; yields the recorded call
active

Consider the additional compound presented here.
// param item: O=C(Nc1ccc([N+](=O)[O-])cc1Cl)c1cc(Cl)ccc1O ; yields the recorded call
active

----------
- Test system: TAB109
- assay.explanation: qHTS profiling for inhibitors of Plasmodium falciparum proliferation (AID 504749); note: nearly all actives have a fitted effect of over 60% in size
- measurement.context: P. falciparum in erythrocytes, SYBR Green DNA, 72 h; series mostly up to 28.7 µM
Inconclusive results are not listed. Activity calls are given as the source filed them. Calls come from the whole dose curve; as a rule, active = well fitted inhibition curve with a large enough effect; inconclusive = small, poorly fitted or top-dose-only effect; inactive = flat fitted curve, though single readings scatter.
The reply should be one of these categories: active, inactive

// param item: Cc1cc(C(C)(C)C)c(O)c(C)c1CC1=NCCN1 ; yields the recorded call
inactive

// param item: CS(=O)(=O)CCNCc1ccc(-c2ccc3ncnc(Nc4ccc(OCc5cccc(F)c5)c(Cl)c4)c3c2)o1 ; yields the recorded call
inactive

// param item: CCOC(=O)c1ncn2c1CN(C)C(=O)c1cc(F)ccc1-2 ; yields the recorded call
inactive

// param item: Clc1ccccc1C(c1ccccc1)(c1ccccc1)n1ccnc1 ; yields the recorded call
active

// param item: CS(=O)(=O)Nc1ccc([N+](=O)[O-])cc1Oc1ccccc1 ; yields the recorded call
inactive

// param item: COc1ccc2[nH]cc(CCNC(C)=O)c2c1 ; yields the recorded call
inactive

----------
- test.system: Glucagon-like peptide 1 receptor (Homo sapiens) (UniProt P43220)
- Sequence (P43220 whole entry, looked up): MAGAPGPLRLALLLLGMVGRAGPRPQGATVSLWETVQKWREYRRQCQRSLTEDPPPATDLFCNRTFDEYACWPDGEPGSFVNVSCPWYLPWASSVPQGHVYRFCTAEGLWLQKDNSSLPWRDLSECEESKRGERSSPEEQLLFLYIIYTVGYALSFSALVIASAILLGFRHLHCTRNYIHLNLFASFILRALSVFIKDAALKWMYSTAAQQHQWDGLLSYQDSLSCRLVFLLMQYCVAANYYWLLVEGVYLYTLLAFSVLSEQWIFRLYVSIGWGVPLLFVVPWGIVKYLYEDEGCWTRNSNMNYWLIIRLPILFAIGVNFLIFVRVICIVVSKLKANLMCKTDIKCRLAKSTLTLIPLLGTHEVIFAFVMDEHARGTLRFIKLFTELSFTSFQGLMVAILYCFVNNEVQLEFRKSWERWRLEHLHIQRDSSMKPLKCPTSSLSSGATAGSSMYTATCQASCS
- assay.explanation: qHTS of GLP-1 Receptor Agonists: LOPAC Validation (AID 624148);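 note: luminescence from a luciferase reporter switched on by cAMP; higher luminescence signal means agonism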
- measurement.context: GLP-1R agonist cell assay; series mostly up to 46.1 µM
Inconclusive results are not listed. Active and inactive are the calls of the source. Calls come from the whole dose curve; as a rule, active = well fitted curve in the direction sought with a large enough effect; inconclusive = small, poorly fitted or top-dose-only effect, or another doubt; inactive = no such curve, though single readings can be large or run the other way.
The reply should be one of these categories: active, inactive

// param item: Fc1ccc([C@@H]2CCNC[C@H]2COc2ccc3c(c2)OCO3)cc1 ; yields the recorded call
inactive

// param item: Nc1ccn([C@H]2CC[C@@H](CO)O2)c(=O)n1 ; yields the recorded call
inactive

// param item: CC[N+](CC)(CC)CCOc1cccc(OCC[N+](CC)(CC)CC)c1OCC[N+](CC)(CC)CC ; yields the recorded call
inactive

// param item: CN(C)c1nc(N(C)C)nc(N(C)C)n1 ; yields the recorded call
inactive

// param item: Cn1cnc2c1c(=O)[nH]c(=O)n2C ; yields the recorded call
inactive

----------
- Tested on: ECU
- assay.explanation: qHTS profiling for inhibitors of Plasmodium falciparum proliferation (AID 504749); note: nearly all actives have a fitted effect of over 60% in size; note: potency is the fitted concentration of half-maximal effect
- measurement.context: P. falciparum in erythrocytes, SYBR Green DNA, 72 h; series mostly up to 28.7 µM
Results filed as inconclusive are left out. Calls of active or inactive are those of the source. Calls follow the shape of the dose curve; as a rule, active = well fitted inhibition curve with a large enough effect; inconclusive = small, poorly fitted or top-dose-only effect; inactive = flat fitted curve, though single readings scatter.
experimental.readout: Potency

Dear colleague, I am looking for the recorded Potency of the following compound: Nc1nnc(-c2cccc(Cl)c2Cl)c(N)n1
inactive

Dear colleague, I am looking for the recorded Potency of the following compound: COc1ccccc1OCC(O)CN1CCN(CC(=O)Nc2c(C)cccc2C)CC1 (stereo unspecified)
inactive

Dear colleague, I am looking for the recorded Potency of the following compound: CC(=O)OCC(CCn1cnc2cnc(N)nc21)COC(C)=O
inactive

Dear colleague, I am looking for the recorded Potency of the following compound: CN(C)CCOC(c1ccccc1)c1ccccc1
inactive

Dear colleague, I am looking for the recorded Potency of the following compound: C[C@](N)(Cc1ccc(O)c(O)c1)C(=O)O
inactive

Further cases:
Dear colleague, I am looking for the recorded Potency of the following compound: NC(=O)NO
inactive

Dear colleague, I am looking for the recorded Potency of the following compound: Cc1cn([C@H]2C[C@H](N=[N+]=[N-])[C@@H](CO)O2)c(=O)[nH]c1=O
inactive

Dear colleague, I am looking for the recorded Potency of the following compound: CN(C)c1nc(N(C)C)nc(N(C)C)n1
inactive

Dear colleague, I am looking for the recorded Potency of the following compound: Cc1ccc(-c2cc(C(F)(F)F)nn2-c2ccc(S(N)(=O)=O)cc2)cc1
10 µM (active)

Dear colleague, I am looking for the recorded Potency of the following compound: Nc1nc2c(ncn2COC(CO)CO)c(=O)[nH]1
inactive

Dear colleague, I am looking for the recorded Potency of the following compound: CCCNCC(O)COc1ccccc1C(=O)CCc1ccccc1 (stereo unspecified)
0.708 µM (active)

Dear colleague, I am looking for the recorded Potency of the following compound: O=C(c1ccc(F)cc1)C1CCN(CCn2c(=O)[nH]c3ccccc3c2=O)CC1
inactive

----------
- Test system: Zika virus NS2B-NS3 protease (unlinked)
- assay.explanation: Optimization of GU AMC qHTS for Zika virus inhibitors: Unlinked NS2B-NS3 protease assay (AID 1347151); note: nearly all actives have a fitted effect of over 80% in size; note: potency is the fitted concentration of half-maximal effect
- measurement.context: recombinant ZIKV NS2B-NS3 protease, fluorogenic AMC substrate; series mostly up to 52.5 µM
Records with an inconclusive call do not appear. Calls of active or inactive are those of the source. Calls follow the shape of the dose curve; as a rule, active = well fitted inhibition curve with a large enough effect; inconclusive = small, poorly fitted or top-dose-only effect; inactive = no such curve, though single readings can be large or run the other way.
experimental.readout: Potency

Reference set (8 entries):
Dear colleague, I am looking for the recorded Potency of the following compound: COc1nc(C)nc(Cl)c1NC1=NCCN1
inactive

Dear colleague, I am looking for the recorded Potency of the following compound: OCCN(CCO)c1nc(N2CCCCC2)c2nc(N(CCO)CCO)nc(N3CCCCC3)c2n1
26.7 µM (active)

Dear colleague, I am looking for the recorded Potency of the following compound: O=C(c1ccc(OCCN2CCCCC2)cc1)c1c(-c2ccc(O)cc2)sc2cc(O)ccc12
inactive

Dear colleague, I am looking for the recorded Potency of the following compound: O=c1c(-c2ccc(O)cc2)coc2cc(O)cc(O)c12
inactive

Dear colleague, I am looking for the recorded Potency of the following compound: COc1cc2nc(N3CCN(C(=O)c4ccco4)CC3)nc(N)c2cc1OC
26.7 µM (active)

Dear colleague, I am looking for the recorded Potency of the following compound: C[C@H]1c2cccc(O)c2C(O)=C2C(=O)[C@]3(O)C(O)=C(C(N)=O)C(=O)[C@@H](N(C)C)[C@@H]3[C@@H](O)[C@@H]21
inactive

Dear colleague, I am looking for the recorded Potency of the following compound: Cc1cc(C(C)(C)C)cc(C)c1CC1=NCCN1
inactive

Dear colleague, I am looking for the recorded Potency of the following compound: Fc1ccc([C@@H]2CCNC[C@H]2COc2ccc3c(c2)OCO3)cc1
inactive

Further cases:
Dear colleague, I am looking for the recorded Potency of the following compound: COc1ccc(C2CNC(=O)C2)cc1OC1CCCC1 (stereo unspecified)
inactive

Dear colleague, I am looking for the recorded Potency of the following compound: CS(=O)(=O)Nc1ccc([N+](=O)[O-])cc1Oc1ccccc1
inactive

Dear colleague, I am looking for the recorded Potency of the following compound: NC(=O)OCC(COC(N)=O)c1ccccc1
inactive

Dear colleague, I am looking for the recorded Potency of the following compound: CCOC(=O)C(C)(C)Oc1ccc(Cl)cc1
inactive

Dear colleague, I am looking for the recorded Potency of the following compound: Cc1ccc(C(=O)Nc2ccc(S(=O)(=O)O)c3cc(S(=O)(=O)O)cc(S(=O)(=O)O)c23)cc1NC(=O)c1cccc(NC(=O)Nc2cccc(C(=O)Nc3cc(C(=O)Nc4ccc(S(=O)(=O)O)c5cc(S(=O)(=O)O)cc(S(=O)(=O)O)c45)ccc3C)c2)c1
16.8 µM (active)

Dear colleague, I am looking for the recorded Potency of the following compound: CCC1(C)CC(=O)NC1=O (stereo unspecified)
inactive

Dear colleague, I am looking for the recorded Potency of the following compound: COc1ccccc1OCCNCC(O)COc1cccc2[nH]c3ccccc3c12 (stereo unspecified)
inactive

Dear colleague, I am looking for the recorded Potency of the following compound: CCC1(c2ccccc2)C(=O)NCNC1=O
inactive

----------
- assay.explanation: Quantitative High-Throughput drug screen in 47 multiple myeloma cell lines against the NCATS MIPE library collection: KHM11_PLB cell viability assay (AID 1918962); note: nearly all actives have a fitted effect of over 35% in size
- measurement.context: KHM11 myeloma cell viability, CellTiter-Glo ATP luminescence, 48 h; series mostly up to 45.8 µM
Records with an inconclusive call do not appear. The source made the active and inactive calls. Calls come from the whole dose curve; as a rule, active = well fitted cell-killing curve with a large enough effect; inconclusive = small, poorly fitted or top-dose-only effect, or effect the other way; inactive = no such curve, though single readings can be large or run the other way.
The reply should be one of these categories: y for active, n for inactive

// param item: CC(C(=O)O)c1cccc(C(=O)c2ccccc2)c1 (stereo unspecified) ; yields the recorded call
y

// param item: O=C(Nc1ccc([N+](=O)[O-])cc1Cl)c1cc(Cl)ccc1O ; yields the recorded call
y

// param item: O=C(C1CCCCC1)N1CC(=O)N2CCc3ccccc3C2C1 (stereo unspecified) ; yields the recorded call
n

Further cases:
// param item: COc1cc2nc(N(C)CCCNC(=O)C3CCCO3)nc(N)c2cc1OC (stereo unspecified) ; yields the recorded call
n

// param item: CC1(CN2CCC(n3c(=O)[nH]c4ccccc43)CC2)OCc2ccccc2-n2cccc21 (stereo unspecified) ; yields the recorded call
n

// param item: CC[C@@]1(O)C(=O)OCc2c1cc1n(c2=O)Cc2cc3c(CN(C)C)c(O)ccc3nc2-1 ; yields the recorded call
y

// param item: CCc1cccc2c3c([nH]c12)C(CC)(CC(=O)O)OCC3 (stereo unspecified) ; yields the recorded call
n

// param item: CCC1(c2ccccc2)C(=O)NCNC1=O ; yields the recorded call
y

// param item: CC(C)C(=O)Nc1ccc([N+](=O)[O-])c(C(F)(F)F)c1 ; yields the recorded call
y

// param item: CC(C)NCC(O)c1ccc(O)c(O)c1 (stereo unspecified) ; yields the recorded call
n

// param item: NC(CO)C(=O)NNCc1ccc(O)c(O)c1O (stereo unspecified) ; yields the recorded call
n
